# credit: PubChem BioAssay AID1963420

Recorded viability, T/C for the following compounds
System: 494315-158-R-J1-PDC complex spheroid growth, percent test/control
method-notes: Anticancer human tumor 494315-158-R-J1-PDC patient-derived soft tissue sarcoma cell line growth inhibition [Asc]
protocol-conditions: second compound 0.01 µM; first compound 0.00316 µM; stronger effect = lower value
Source text: Multicellular complex tumor spheroid response to apoptosis pathway targeting inhibitors Alrizomadlin, Pelcitoclax, and Dasminapant in combination with a variety of drugs and investigational agents in selected tumor cell lines […] Compounds. […] If the clinical Cmax for an agent had not been determined, the highest concentration tested was 10 microM. […]

compound	u	viability, T/C
O=C(c1ccc(F)c(F)c1Nc1ccc(I)cc1F)N1CC(O)([C@@H]2CCCCN2)C1 + CNC(C)C(=O)NC1CN(S(=O)(=O)c2cccc(S(=O)(=O)N3CCC4CCC(C(=O)NC(c5ccccc5)c5ccccc5)N4C(=O)C(NC(=O)C(C)NC)C3)c2)CCC2CCC(C(=O)NC(c3ccccc3)c3ccccc3)N2C1=O	%	83.5
NC1CCC(NC2CC2c2ccccc2)CC1 (configuration not stated) + CNC(C)C(=O)NC1CN(S(=O)(=O)c2cccc(S(=O)(=O)N3CCC4CCC(C(=O)NC(c5ccccc5)c5ccccc5)N4C(=O)C(NC(=O)C(C)NC)C3)c2)CCC2CCC(C(=O)NC(c3ccccc3)c3ccccc3)N2C1=O	%	71.7

====

System: 494315-158-R-J1-PDC complex spheroid growth, percent test/control
method-notes: Anticancer human tumor 494315-158-R-J1-PDC cell line growth inhibition [Asc];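 note: compound exposure lasted seven days after spheroids formed for three days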
protocol-conditions: second compound 0.01 µM; first compound 1 µM; stronger effect = lower value

molecule	viability, T/C [%]
C=C(F)C(=O)N1CCN(c2nc(OCC3CCCN3C)nc3c2CCN(c2cccc4cccc(Cl)c24)C3)CC1CC#N (stereo not drawn) + CNC(C)C(=O)NC1CN(S(=O)(=O)c2cccc(S(=O)(=O)N3CCC4CCC(C(=O)NC(c5ccccc5)c5ccccc5)N4C(=O)C(NC(=O)C(C)NC)C3)c2)CCC2CCC(C(=O)NC(c3ccccc3)c3ccccc3)N2C1=O	62.9
O=C(c1ccc(F)c(F)c1Nc1ccc(I)cc1F)N1CC(O)([C@@H]2CCCCN2)C1 + CNC(C)C(=O)NC1CN(S(=O)(=O)c2cccc(S(=O)(=O)N3CCC4CCC(C(=O)NC(c5ccccc5)c5ccccc5)N4C(=O)C(NC(=O)C(C)NC)C3)c2)CCC2CCC(C(=O)NC(c3ccccc3)c3ccccc3)N2C1=O	62.9
CCN1CCN(Cc2ccc(Nc3ncc(F)c(-c4cc(F)c5nc(C)n(C(C)C)c5c4)n3)nc2)CC1 + CNC(C)C(=O)NC1CN(S(=O)(=O)c2cccc(S(=O)(=O)N3CCC4CCC(C(=O)NC(c5ccccc5)c5ccccc5)N4C(=O)C(NC(=O)C(C)NC)C3)c2)CCC2CCC(C(=O)NC(c3ccccc3)c3ccccc3)N2C1=O	63.8

====

System: 494315-158-R-J1-PDC complex spheroid growth, percent test/control
method-notes: Anticancer human tumor 494315-158-R-J1-PDC cell line growth inhibition [Asc];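 note: compound exposure lasted seven days after spheroids formed for three days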
protocol-conditions: second compound 0.316 µM; first compound 0.3 µM; stronger effect = lower value
Threshold-based label: viability, T/C under 40% gives t, viability, T/C not under 40% gives f.

molecule	class-name
NC(=O)C(=Cn1cnc(-c2cc(C(F)(F)F)cc(C(F)(F)F)c2)n1)c1cncnc1 + Cc1c(S(C)(=O)=O)c(-c2cc(F)cc(N3CCN(c4ccc(NS(=O)(=O)c5ccc(NC(CCN6CCC(C(=O)OCCCP(=O)(O)O)CC6)CSc6ccccc6)c(S(=O)(=O)C(F)(F)F)c5)cc4)CC3)c2)c(-c2ccc(Cl)cc2)n1C(C)C	t
CCN1C(C(=O)NC23CCC(C(=O)O)(CC2)CC3)C(c2cccc(Cl)c2F)C2(C(=O)Nc3cc(Cl)ccc32)C12CCCCC2 (stereo unspecified) + Cc1c(S(C)(=O)=O)c(-c2cc(F)cc(N3CCN(c4ccc(NS(=O)(=O)c5ccc(NC(CCN6CCC(C(=O)OCCCP(=O)(O)O)CC6)CSc6ccccc6)c(S(=O)(=O)C(F)(F)F)c5)cc4)CC3)c2)c(-c2ccc(Cl)cc2)n1C(C)C	f
Cc1nc(N2CCC3(CC2)COC(C)C3N)c(CO)nc1Sc1ccnc(N)c1Cl (stereo unspecified) + Cc1c(S(C)(=O)=O)c(-c2cc(F)cc(N3CCN(c4ccc(NS(=O)(=O)c5ccc(NC(CCN6CCC(C(=O)OCCCP(=O)(O)O)CC6)CSc6ccccc6)c(S(=O)(=O)C(F)(F)F)c5)cc4)CC3)c2)c(-c2ccc(Cl)cc2)n1C(C)C	f
Cc1nc(N2CCC3(CC2)COC(C)C3N)c(CO)nc1Sc1ccnc(N)c1Cl (stereo unspecified) + CNC(C)C(=O)NC1CN(S(=O)(=O)c2cccc(S(=O)(=O)N3CCC4CCC(C(=O)NC(c5ccccc5)c5ccccc5)N4C(=O)C(NC(=O)C(C)NC)C3)c2)CCC2CCC(C(=O)NC(c3ccccc3)c3ccccc3)N2C1=O	t
NC(=O)C(=Cn1cnc(-c2cc(C(F)(F)F)cc(C(F)(F)F)c2)n1)c1cncnc1 + CNC(C)C(=O)NC1CN(S(=O)(=O)c2cccc(S(=O)(=O)N3CCC4CCC(C(=O)NC(c5ccccc5)c5ccccc5)N4C(=O)C(NC(=O)C(C)NC)C3)c2)CCC2CCC(C(=O)NC(c3ccccc3)c3ccccc3)N2C1=O	t
